Experiment: Thermodynamic solubility of compound at pH 3
Details: buffer
Measure Name: solubility thermodynamic (µg/mL)
Field format: number, assumed µg/mL, no unit text.

O=c1nc(OC[C@@H]2COCCO2)cc2n1CCc1cc(C#CC3CC3)ccc1-2 [GLPG-1205] : 12.6

Query molecule follows.
Exam item: Output measured solubility thermodynamic for this item: O=c1nc(OC[C@H]2COCCO2)cc2n1CCc1cc(C#CC3CC3)ccc1-2
Marked response: 17.6

###

Test: in vitro
Details: human, cryopreserved hepatocytes
The entries below come with measured CLint scaled at 1 µM values attached.

Here are 2 molecules together with their reported answers.
O=c1nc(OC[C@H]2COCCO2)cc2n1CCc1cc(C#CC3CC3)ccc1-2 : < 21.3 mL/min/kg
O=c1nc(OC[C@@H]2COCCO2)cc2n1CCc1cc(C#CC3CC3)ccc1-2 [GLPG-1205] : < 21.3 mL/min/kg

// moving on: another record for CLint scaled at 1 µM
Exam item: Tell me CLint scaled at 1 µM reported for COc1ccc2c(c1)CCn1c-2cc(OCC2COCCO2)nc1=O (stereo not drawn)
Marked response: < 11.7 mL/min/kg

Value source: ChEMBL document CHEMBL4673243
